Target: MOR-1 (Mus musculus, UniProt P42866)
Details: read-out: EC50 MOR-1; [35S]GTPγS stimulation
outcome_measure: EC50 (nM)
Write down the numeric answer in nM and omit the unit.

The recorded EC50 for O=C(N[C@@H]1C=C[C@H]2[C@H]3Cc4ccc(O)c5c4[C@@]2(CCN3CC2CC2)[C@H]1O5)c1cccc(I)c1 [Compound 16] is 0.21

###

Here's what we have: Ki numbers for UniProt P33534.
Dear colleague, please return just the value in nM, with no unit written.

COc1ccc2c3c1O[C@H]1[C@H](NC(=O)c4cccc(I)c4)C=C[C@H]4[C@@H](C2)N(C)CC[C@@]341 :: 10
C=CCN1CC[C@]23c4c5ccc(O)c4O[C@H]2[C@H](NC(=O)c2cccc(I)c2)C=C[C@H]3[C@H]1C5 :: 0.022
O=C(N[C@@H]1CC[C@@]2(O)[C@H]3Cc4ccc(O)c5c4[C@@]2(CCN3CC2CC2)[C@H]1O5)c1cccc(I)c1 [Compound 1, 3-Iodobenzoyl-β-naltrexamine, reference compound] :: 0.03
O=C(N[C@@H]1C=C[C@H]2[C@H]3Cc4ccc(O)c5c4[C@@]2(CCN3CC2CC2)[C@H]1O5)c1cccc(I)c1 :: 0.0064
CN1CC[C@]23c4c5ccc(O)c4O[C@H]2[C@H](NC(=O)c2cccc(I)c2)C=C[C@H]3[C@H]1C5 :: 0.21

// next entry
Ki recorded for this molecule, O=C(N[C@@H]1C=C[C@H]2[C@H]3Cc4ccc(O)c5c4[C@@]2(CCN3CCc2ccccc2)[C@H]1O5)c1cccc(I)c1 , is 0.14

###

Biological target: KOR-1 (Mus musculus)
Experiment: [35S]GTPγS binding assay, KOR-1
Conditions: read-out: EC50 KOR-1; [35S]GTPγS stimulation
outcome_measure: EC50

Just so you know, measured EC50 for O=C(N[C@@H]1C=C[C@H]2[C@H]3Cc4ccc(O)c5c4[C@@]2(CCN3CC2CC2)[C@H]1O5)c1cccc(I)c1 came out at 0.027 nM

###

# Ki per record follows
Molecular target: 6TM/E11 (Mus musculus)
Settings: read-out: Ki 6TM/E11; [125I]BNtxA 0.1 nM, mouse brain, CTAP, DPDPE, U50,488 blockers at 200 nM

O=C(N[C@@H]1C=C[C@H]2[C@H]3Cc4ccc(O)c5c4[C@@]2(CCN3CC2CC2)[C@H]1O5)c1cccc(I)c1 [Compound 16] :: 0.47 nM

Ki measured on O=C(N[C@@H]1C=C[C@H]2[C@H]3Cc4ccc(O)c5c4[C@@]2(CCN3CCc2ccccc2)[C@H]1O5)c1cccc(I)c1 [Compound 15] = 14 nM

The recorded Ki for entry CN1CC[C@]23c4c5ccc(O)c4O[C@H]2[C@H](NC(=O)c2cccc(I)c2)C=C[C@H]3[C@H]1C5 [Compound 6] equals 27 nM

###

Target: 6TM/E11 (Mus musculus, UniProt P42866)
Conditions: read-out: Ki 6TM/E11; [125I]BNtxA 0.1 nM, mouse brain, CTAP, DPDPE, U50,488 blockers at 200 nM
Listed next: entries and their corresponding pKi.
Scale: pKi equals -log10([C]), with [C] in mol/L.

COc1ccc2c3c1O[C@H]1[C@H](NC(=O)c4cccc(I)c4)C=C[C@H]4[C@@H](C2)N(C)CC[C@@]341 [Compound 5] :: 7.21

Tested on 6TM/E11 (Mus musculus, UniProt P42866): C=CCN1CC[C@]23c4c5ccc(O)c4O[C@H]2[C@H](NC(=O)c2cccc(I)c2)C=C[C@H]3[C@H]1C5 [Compound 17] . Observed pKi: 9.11

The recorded pKi with 6TM/E11 (Mus musculus, UniProt P42866) for O=C(N[C@@H]1CC[C@@]2(O)[C@H]3Cc4ccc(O)c5c4[C@@]2(CCN3CC2CC2)[C@H]1O5)c1cccc(I)c1 [Compound 1, 3-Iodobenzoyl-β-naltrexamine, reference compound] was 9.80
